The measurements presented in this section are drawn from patent US12398117B2.

Tested on: adhesion of intestinal epithelial cells (HT-29) and monocytic cells (U937) induced by IL-6
Assay: Inhibition of IL-6-induced adhesion of monocytes and intestinal epithelial cells
Format: cell-based, human
Conditions: Homo sapiens, 3 h; test drug 1 μM; IL-6 10 ng/mL; HT-29/U937; read-out: inhibitory activity (%)
measurement_name: inhibition at 1 µM (%)
Answers are plain numbers, in %.

Illustrative cases are given below, each with its answer.
1. Cc1nc(NC(=O)c2sc3cc(Cl)ccc3c2Cl)c(C)c(C)c1O	9
2. COc1c(C)nc(N(C)C(=O)c2sc3cc(F)ccc3c2Cl)c(C)c1C	10.9
3. Cc1nc(NC(=O)c2sc3cc(F)ccc3c2Cl)c(C)c(C)c1OCC(=O)NC(C)C	49.9
4. Cc1nc(NC(=O)c2cc3cc(Br)ccc3[nH]2)c(C)c(C)c1O	80.3
5. Cc1nc(NC(=O)c2cc3ccccc3o2)c(C)c(C)c1O	42.4
6. COc1c(C)nc(NC(=O)c2sc3cc(F)ccc3c2Cl)c(C)c1C	4.7
7. Cc1nc(NC(=O)c2cc3ccc(Br)cc3[nH]2)c(C)c(C)c1O	3.4
8. COc1ccc2cc(C(=O)Nc3nc(C)c(O)c(C)c3C)[nH]c2c1	46

Please state, for each entry, its recorded inhibition at 1 µM.
1. Cc1nc(NC(=O)c2sc3cc(F)ccc3c2Cl)c(C)c(C)c1OCC(=O)NC1CC1
2. Cc1nc(NC(=O)c2cc3cc(Cl)ccc3o2)c(C)c(C)c1O
3. Cc1nc(NC(=O)c2cc3cc(Cl)ccc3[nH]2)c(C)c(C)c1O
4. COc1cccc(C(=O)Oc2c(C)nc(NC(=O)c3sc4cc(F)ccc4c3Cl)c(C)c2C)c1
5. Cc1nc(NC(=O)c2sc3ccccc3c2Br)c(C)c(C)c1O

OUTPUT:
1: 6.5; 2: 15.1; 3: 21.3; 4: 13.1; 5: 19.7

Count: 5. Required value per item: inhibition at 1 µM.
1. Cc1ccc2c(Cl)c(C(=O)Nc3nc(C)c(O)c(C)c3C)sc2c1
2. Cc1nc(NC(=O)c2sc3cc(F)ccc3c2Cl)c(C)c(C)c1OC(=O)N1CCOCC1
3. Cc1nc(NC(=O)c2cc3cc(F)ccc3[nH]2)c(C)c(C)c1O
4. Cc1nc(NC(=O)c2cc3cc(OC(F)(F)F)ccc3[nH]2)c(C)c(C)c1O
5. Cc1nc(NC(=O)c2cc3cc(Br)ccc3o2)c(C)c(C)c1O

OUTPUT:
1. 8.7
2. 59.6
3. 42.9
4. 24.2
5. 3.6

----------
Tested on: adhesion of intestinal epithelial cells (HT-29) and monocytic cells (U937) induced by IL-6
Test: Inhibition of IL-6-induced adhesion of monocytes and intestinal epithelial cells
Assay type: cell-based, human
Details: Homo sapiens; inhibition of adhesion by IL-6
measurement_name: IC50 (nM)
Numbers only, in nM.

INPUT: Form field - read-out: IC50; system: adhesion of intestinal epithelial cells (HT-29) and monocytic cells (U937) induced by IL-6; submitted item: Cc1ccc2[nH]c(C(=O)Nc3nc(C)c(O)c(C)c3C)cc2c1 [Compound X-09]
OUTPUT: 340

----------
Test system: TNBS-induced inflammatory bowel disease rat model
Test: Oral efficacy in TNBS-induced inflammatory bowel disease rat model
Assay type: in vivo, Sprague Dawley rats
Conditions: oral 1 mg/kg, 5 days, fixed-dose test (Table 6)
measurement_name: Intestinal weight recovery rate (%)
One number for each entry, in %.

Some compounds with known Intestinal weight recovery rate (%) results, for comparison:
1) Cc1nc(NC(=O)c2cc3cc(Br)ccc3[nH]2)c(C)c(C)c1O [Compound X-07]	94.9
2) Cc1nc(NC(=O)c2sc3cc(F)ccc3c2Cl)c(C)c(C)c1O [Compound X-24]	97.4
3) Cc1nc(NC(=O)c2sc3cc(F)ccc3c2Cl)c(C)c(C)c1OCC(=O)Nc1ccccc1 [XI-07]	91.0

// batch mode: one Intestinal weight recovery rate (%) value per listed entry
1. Cc1ccc2[nH]c(C(=O)Nc3nc(C)c(O)c(C)c3C)cc2c1 [Compound X-09]
2. Cc1nc(NC(=O)c2sc3cc(F)ccc3c2Cl)c(C)c(C)c1OC(=O)N1CCOCC1 [XI-17]

OUTPUT:
[94.0, 79.8]
